Source listed as patent US20240327429A1.

Test system: human NOX1 (hNOX1) (Homo sapiens, UniProt Q9Y5S8)
Construct: pLV-CMV-hNOX1-puro (NM_007052.5); host or cells: HEK293 (CLS GmbH), lentiviral transduction
Sequence (Q9Y5S8 1-564): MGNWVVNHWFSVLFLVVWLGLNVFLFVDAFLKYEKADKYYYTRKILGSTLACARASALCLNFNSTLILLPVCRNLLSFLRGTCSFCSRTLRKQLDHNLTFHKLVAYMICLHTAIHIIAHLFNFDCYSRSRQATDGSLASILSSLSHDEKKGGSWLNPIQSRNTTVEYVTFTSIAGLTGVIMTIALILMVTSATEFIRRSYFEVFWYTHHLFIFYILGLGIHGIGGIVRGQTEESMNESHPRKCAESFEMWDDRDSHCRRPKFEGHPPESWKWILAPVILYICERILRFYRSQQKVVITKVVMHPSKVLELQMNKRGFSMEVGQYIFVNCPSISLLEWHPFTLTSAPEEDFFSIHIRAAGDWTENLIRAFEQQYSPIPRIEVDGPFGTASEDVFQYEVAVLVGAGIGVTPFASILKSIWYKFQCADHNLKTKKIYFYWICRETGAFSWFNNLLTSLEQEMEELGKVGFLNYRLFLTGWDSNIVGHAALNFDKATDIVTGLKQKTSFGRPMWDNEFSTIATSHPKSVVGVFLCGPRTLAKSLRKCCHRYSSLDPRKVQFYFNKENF
Sequence (P13498 2-195 partner limits assumed): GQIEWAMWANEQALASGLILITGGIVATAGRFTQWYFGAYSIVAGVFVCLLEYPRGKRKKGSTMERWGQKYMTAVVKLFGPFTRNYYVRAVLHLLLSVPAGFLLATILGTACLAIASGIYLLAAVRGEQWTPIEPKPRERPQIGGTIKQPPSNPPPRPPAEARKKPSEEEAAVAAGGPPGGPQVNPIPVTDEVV
Test: NOX1 inhibition assay (L-012), HEK293 cells stably overexpressing human NOX1
Format: cell-based
Condition summary: HEK293-hNOX1, PMA stimulated
pIC50: −log10 of the molar value.
Attribute measured: pIC50

These recorded examples may help you get a feel for the data.
- Smiles text: "Cc1c(F)cccc1CSc1nc2ncsc2c(=O)n1-c1cnc(O)c(F)c1"
  Numeric result: 4.48
- Smiles text: "Cc1cc(F)ccc1CSc1nc2ncsc2c(=O)n1-c1cnc(O)nc1"
  Numeric result: 4.93
- Smiles text: "O=c1c2scnc2nc(SCc2c(F)cc(F)cc2F)n1-c1ccc(O)nc1"
  Numeric result: 4.57
- Smiles text: "O=c1c2scnc2nc(SCc2ccc(Br)cc2F)n1-c1cnc(O)c(F)c1"
  Numeric result: 4.83
- Smiles text: "O=c1c2scnc2nc(SCc2c(F)cc(F)cc2F)n1-c1ccc(O)c(F)c1"
  Numeric result: 6.05
- Smiles text: "O=c1c2scnc2nc(SCc2c(F)ccc(F)c2F)n1-c1cnc(O)c(F)c1"
  Numeric result: 4.51
- Smiles text: "N#Cc1cc(-n2c(SCc3c(F)cc(F)cc3F)nc3ncsc3c2=O)ccc1O"
  Numeric result: 7.22
- Smiles text: "O=c1c2scnc2nc(SCc2c(F)cc(F)cc2F)n1-c1c(F)cc(O)cc1F"
  Numeric result: 5.49

[I] O=c1c2scnc2nc(SCc2ccc(Cl)cc2Cl)n1-c1cnc(O)c(F)c1
[II] Cc1cc(Cl)ccc1CSc1nc2ncsc2c(=O)n1-c1cc(F)c(O)c(F)c1
Query block: // compare measured pIC50 between I and II ; output the lower one When you have decided, please share the label of that item.
Result block: I
(I: 4.61, II: 5.77)
